# Test system: FXR:RXRa (NR concentration 270 nM, RXRa partner concentration 90 nM)
# Experiment: PBM binding z-score (relative to random genomic background probes); higher = stronger binding; sequences stand for … in GC…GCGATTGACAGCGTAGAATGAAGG
Lab note: anything with PBM binding z-score at or over 1 counts as true (1); the rest go in false (0).

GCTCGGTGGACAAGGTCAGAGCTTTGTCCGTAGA
true (1)
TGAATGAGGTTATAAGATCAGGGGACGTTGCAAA
true (1)
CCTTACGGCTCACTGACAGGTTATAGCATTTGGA
false (0)
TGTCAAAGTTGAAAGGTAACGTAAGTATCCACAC
true (1)
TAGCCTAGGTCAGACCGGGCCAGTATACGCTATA
true (1)

Exercise: Decide: is the reported value of PBM binding z-score for `CCTTACGGGTCAAGGTTAAAGCACGGGTGGTACG` equal to or greater than 1?
Key: true (1)

###

Below, each entry is listed alongside its reported PBM binding z-score.
# Tested on: PPARg DBDmut:RXRa IVT, anti-PPARg (DBD mutation: PPARg1 K132A/R137A, NR concentration 270 nM, RXRa partner concentration 90 nM)
# Experiment: PBM binding z-score (relative to random genomic background probes); higher = stronger binding; sequences stand for … in GC…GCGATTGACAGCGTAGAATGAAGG
Give the figure by itself; no unit, no explanation.

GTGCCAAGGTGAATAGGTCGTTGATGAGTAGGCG
0.113
CCTACTGGGCCAAAGGTCATTGAGTCCAATGCTC
0.176
ACTAGCAGGCGAAGTTTGGGTCACTCAAACAAAG
-0.763

Exercise: Need PBM binding z-score of `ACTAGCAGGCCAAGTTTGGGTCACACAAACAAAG` , thanks.
Key: 0.166

Exercise: Note, next up: `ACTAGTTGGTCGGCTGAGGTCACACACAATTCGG`
Key: 0.508

Exercise: Same question, `TCTCGGAGGACACGAAGGTTAGAGCTTTCCAGAG` this time
Key: -0.626

Exercise: Same read-out for `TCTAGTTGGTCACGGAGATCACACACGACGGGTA` ?
Key: 0.815

Exercise: Next entry: `TCTCGTAGATCAATAGAGGTTAAGAAAGTGCGCT`
Key: 0.246

Exercise: How about `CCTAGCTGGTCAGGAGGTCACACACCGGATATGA` ?
Key: 0.353

Exercise: Query `CTCGAAAGGTCGTGCTCTGGTGAGTATACCAAAC` next
Key: 0.0542

Exercise: Request: `CGAATTAGGTCATCCAGGACAGTGAATACATTGA`
Key: 3.83

###

PBM binding z-score: recorded values
# Test system: THRa:RXRa (NR concentration 90 nM, RXRa partner concentration 90 nM)
# Experiment: PBM binding z-score (relative to random genomic background probes); higher = stronger binding; sequences stand for … in GC…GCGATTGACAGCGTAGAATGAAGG
Lab note: record just the number, no unit beside it.

Worked set:
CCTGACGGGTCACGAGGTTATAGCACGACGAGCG
3.3
TCTACTAGGTCAGTTGGTCAGCTAACGAGCTGCC
1.28
ATCTCTAGGTAAAGATAGTACAGTGAATGCAAAT
0.452

With those in mind, consider the next sequence.
Exercise: I'd like to know its PBM binding z-score. The sequence in question is `ATCACTAGGTAAAAGTTCAGTGAATCCCGAGGAT`
Key: 1.32

###

# Tested on: PXR:RXRa (NR concentration 270 nM, RXRa partner concentration 90 nM)
# Experiment: PBM binding z-score (relative to random genomic background probes); higher = stronger binding; sequences stand for … in GC…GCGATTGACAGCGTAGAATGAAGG
Would you please tag the item T when its PBM binding z-score is 2 or above, and F when it is below?

Sample answers from the record:
GCTTACGGGTCAAATGTTATAGCATGAATAGAAT
T
ACTATTAGGTGAGACGAGGGCAACCGATAGGTTG
T
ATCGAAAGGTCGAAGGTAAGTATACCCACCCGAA
T
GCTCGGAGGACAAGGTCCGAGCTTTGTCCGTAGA
F
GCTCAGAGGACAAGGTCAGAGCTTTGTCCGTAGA
F

Exercise: In plain terms: is recorded PBM binding z-score at least 2 for `GCAGACAGTTGAAACGCAGGTAACTCAGGGTGGC` ?
Key: F

Exercise: Another sequence to look at: `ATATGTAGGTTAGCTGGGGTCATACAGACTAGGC`
Key: T

Exercise: Try this sequence next: `TCTTGTAAATCAACAGGAGGTTAAGAAAGATCGA`
Key: F

Exercise: Another sequence to check: `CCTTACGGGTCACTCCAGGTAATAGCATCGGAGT`
Key: T

Exercise: What do you have for `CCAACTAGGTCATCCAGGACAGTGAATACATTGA` ?
Key: F

Exercise: What about this sequence? `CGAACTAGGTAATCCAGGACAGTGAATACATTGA`
Key: F

Exercise: Try the sequence `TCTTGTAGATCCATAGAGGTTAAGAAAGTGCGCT`
Key: T

###

# System: RARb:RXRa (NR concentration 270 nM, RXRa partner concentration 90 nM)
# Experiment: PBM binding z-score (relative to random genomic background probes); higher = stronger binding; sequences stand for … in GC…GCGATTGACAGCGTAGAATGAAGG
Measured Attribute: PBM binding z-score

Some entries whose results are on file:
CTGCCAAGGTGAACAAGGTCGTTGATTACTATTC
2.08
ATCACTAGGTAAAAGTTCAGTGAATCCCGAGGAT
2.49
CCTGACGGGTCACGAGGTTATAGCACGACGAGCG
4.32
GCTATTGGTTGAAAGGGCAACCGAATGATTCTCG
1.87
ATGCCAAGGTGATCGTGAGGTCGTTGATACTAAC
1.32

Exercise: Record request: PBM binding z-score value, item `CGTCCAAGGTCAATGCTAGGTGAGTGAAAGCATT`
Key: 4.9

Exercise: Queued: `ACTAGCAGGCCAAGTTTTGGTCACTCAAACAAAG`
Key: 0.742

Exercise: Try this sequence next: `CAAACTAGGTCAAGAGGTCAACGTCCGCTTCCCG`
Key: 5.47

Exercise: Subsequent entry: `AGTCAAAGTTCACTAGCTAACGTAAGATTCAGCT`
Key: 4.56

Exercise: Same lookup for `ATCGAAAGGTCGACGAGGGGAGTATACACCGTTT` , please.
Key: 3.74

Exercise: Note, next up: `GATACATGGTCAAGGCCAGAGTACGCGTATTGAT`
Key: 1.25

Exercise: Entry to check: `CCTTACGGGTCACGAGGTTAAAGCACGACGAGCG`
Key: 4.76

Exercise: What do we get for `GCTAGGTGGTCAGTAAAAGGTCACACACCGGTCG` ?
Key: 4.34

Exercise: Now consider `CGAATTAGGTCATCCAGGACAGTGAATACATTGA` and answer again.
Key: 4.14

Exercise: // same read-out, input: `GGAACGAGGGCAAAGTTGCTAGCATCTGTCGACG`
Key: 2.38

Exercise: Another sequence to look at: `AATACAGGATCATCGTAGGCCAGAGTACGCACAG`
Key: 0.16

Exercise: Follow-up item: `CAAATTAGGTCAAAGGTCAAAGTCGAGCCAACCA`
Key: 5.94

###

# System: PPARg:RXRa 90nM:30nM, anti-RXR (NR concentration 90 nM, RXRa partner concentration 30 nM)
# Experiment: PBM binding z-score (relative to random genomic background probes); higher = stronger binding; sequences stand for … in GC…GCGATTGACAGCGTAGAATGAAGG
If the reported PBM binding z-score equals or exceeds 3, assign class 1. If not, assign class 0.

A selection of reference data follows.
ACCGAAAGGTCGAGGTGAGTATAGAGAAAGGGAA
class 0
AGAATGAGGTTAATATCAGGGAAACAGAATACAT
class 0
CGGACGAGGGCATGAGTTGATAGCAAATGCCGAT
class 0
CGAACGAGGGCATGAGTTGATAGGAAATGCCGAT
class 0
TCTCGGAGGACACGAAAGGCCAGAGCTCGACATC
class 0
CTCGAAAGGTCGTACTCAGGTGAGTATACCAAAC
class 0
ACTATTAGTTGACTTAGGTCAACCGATACGACGC
class 0
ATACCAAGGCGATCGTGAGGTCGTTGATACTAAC
class 0
GCATATAGGTAATACAAGCTGAAAGTCCGATTGT
class 0
TCTAGTTGGTCCCGGAGGTCACACACGACGGGTA
class 1

Exercise: Does `CCTGCTTGGTCATGGTCAGCTAATCTACAGTATG` have a reported PBM binding z-score of at least 3?
Key: class 0

Exercise: Also need `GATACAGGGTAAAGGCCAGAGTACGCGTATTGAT` , thanks.
Key: class 1

Exercise: What about this sequence? `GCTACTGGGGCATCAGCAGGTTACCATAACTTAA`
Key: class 0

Exercise: Another sequence: `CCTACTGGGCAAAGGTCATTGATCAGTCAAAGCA`
Key: class 1

Exercise: Query `TCTCGGAGGACACGAGGGTCAGAGCTTTCCAGAG` next
Key: class 0

Exercise: For `CAAACTAGGTCACGCAAGGTCAAAGTCGAATGAC` then?
Key: class 1

Exercise: Could you do the same for `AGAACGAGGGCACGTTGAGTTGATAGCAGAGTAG` , please?
Key: class 0

Exercise: `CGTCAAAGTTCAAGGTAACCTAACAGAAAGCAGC` ?
Key: class 1

Exercise: // query: `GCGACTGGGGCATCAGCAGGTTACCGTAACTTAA`
Key: class 0

Exercise: Lookup `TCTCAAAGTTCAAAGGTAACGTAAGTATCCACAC`
Key: class 1

Exercise: `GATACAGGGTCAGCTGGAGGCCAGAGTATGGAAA` ?
Key: class 0

Exercise: Also check `CCTGCTAGGTCAATGGTAAGCTAAAGCAGCTCGC`
Key: class 0

Exercise: What do you get for `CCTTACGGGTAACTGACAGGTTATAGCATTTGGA` ?
Key: class 0

Exercise: Next sequence up: `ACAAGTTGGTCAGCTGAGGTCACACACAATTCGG`
Key: class 0

Exercise: Queued: `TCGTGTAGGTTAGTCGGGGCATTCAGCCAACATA`
Key: class 0

Exercise: Try the sequence `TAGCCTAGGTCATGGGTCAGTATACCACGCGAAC`
Key: class 1

Exercise: Subsequent entry: `GCTAGCAGGCCATTTGGGTCATTCAATGACGGGC`
Key: class 0
